The origin of these recorded values is paper PMC5540273.

System: MELK;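 note: KINOMEscan kinase panel screen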
condition: concentration: 1 μM,replicates: in singlicate; n = 1
readout: %Inh (%)
Quick reminder: number only, in %, skip the unit.

Use the examples below as a reference point.
>>> reported_measurement("c1ccc(Oc2ccc(Nc3ccnc4ccc(-c5ccccn5)cc34)cc2)cc1")
0
>>> reported_measurement("C[C@@H]1CNc2c(sc3ccc4nc(-c5ccc(O)cc5)ccc4c23)C(=O)N1")
0
>>> reported_measurement("Cn1ccc2ncnc(Oc3ccc(NC(=O)Nc4cc(C(C)(C)C)on4)c(Cl)c3)c21")
20
>>> reported_measurement("CC(C(=O)NC1CCN(c2ccnc(Nc3ccc(F)cc3)n2)C1)c1ccc(Cl)cc1 (centres unmarked)")
0
>>> reported_measurement("Cn1ccc2ncnc(Oc3ccc(NC(=O)Nc4cccc(C(F)(F)F)c4)c(Cl)c3)c21")
0
>>> reported_measurement("COc1ccc(Nc2nccc(N3CCC(NC(=O)c4cccc(C#N)c4)C3)n2)cc1 (centres unmarked)")
0
>>> reported_measurement("CS(=O)(=O)c1cccc(CNc2nc(Nc3ccc4c(c3)[C@@H]3C[C@@H]4CNC3=O)ncc2C(F)(F)F)c1")
5

# next molecule below
Can you share its %Inh? I mean this molecule: COc1cc(Nc2nccc(N3CCC(NC(=O)c4cccc(C#N)c4)C3)n2)cc(OC)c1OC (centres unmarked)
0
